These entries and their values trace back to patent US20090318501A1.

In this section we review reported IC50 values for a set of compounds.
biological target: trypsin-activated recombinant human renin (Homo sapiens); assay: In vitro renin inhibition, fluorescence of internally quenched peptide substrate; conditions: pH 7.0, rt
Sequence (P00797 67-406): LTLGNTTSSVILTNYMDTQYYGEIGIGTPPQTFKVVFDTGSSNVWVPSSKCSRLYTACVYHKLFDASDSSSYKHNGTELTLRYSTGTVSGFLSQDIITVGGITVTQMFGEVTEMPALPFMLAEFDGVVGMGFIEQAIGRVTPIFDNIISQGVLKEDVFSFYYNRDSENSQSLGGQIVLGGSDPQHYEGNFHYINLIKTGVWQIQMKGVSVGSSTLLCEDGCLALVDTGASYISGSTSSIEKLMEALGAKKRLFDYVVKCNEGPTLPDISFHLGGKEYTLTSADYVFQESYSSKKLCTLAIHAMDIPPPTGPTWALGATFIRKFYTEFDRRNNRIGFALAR

Consider the following illustrative entries.
CNC[C@H](CC1CCCOC1)NC(=O)N1CCC[C@@H]([C@@H](OCCNC(=O)OC)c2cccc(C)c2)C1 (stereo partly drawn) :: < 10 nM
CNC[C@H](C[C@H]1CCCOC1)NC(=O)N1CCC[C@@H]([C@@H](OCCNC(=O)OC)c2cc(Cl)ccc2C)C1 :: < 10 nM
CNC[C@H](C[C@@H]1CCCOC1)NC(=O)N1CCC[C@@H]([C@@H](OCCNC(=O)OC)c2cc(F)cc(F)c2)C1 :: < 10 nM
CNC[C@H](C[C@H]1CCCOC1)NC(=O)N1CCC[C@@H]([C@@H](OCCNC(=O)OC)c2cc(F)cc(Cl)c2)C1 :: < 1 nM
CNC[C@H](C[C@H]1CCCOC1)NC(=O)N1CCC[C@@H]([C@@H](OCCNC(=O)OC)c2ccccc2)C1 :: < 20 nM

Ask: Value wanted: IC50 (trypsin-activated recombinant human renin (Homo sapiens)) of entry CNC[C@H](C[C@H]1CCCOC1)NC(=O)N1CCC[C@@H]([C@@H](OCCNC(=O)OC)c2cccc(F)c2)C1
Reply: < 10 nM
